Each entry below carries its recorded melting point.
attribute-measured: melting point

compound: O[C@H]1Cc2cc(F)ccc2O[C@@H]1c1ccccc1
assay-value: 110 to 111 °C
//
compound: Cc1cccc2c1O[C@H](c1ccccc1)[C@@H](O)C2
assay-value: 68 to 69 °C
//
compound: Cc1cc2c(cc1C)O[C@H](c1ccccc1)[C@@H](O)C2
assay-value: 151 to 152 °C
//
compound: Cc1cc2c(cc1Cl)C[C@H](O)[C@@H](c1ccccc1)O2
assay-value: 129 to 130 °C
//
compound: Cc1ccc2c(c1)O[C@H](c1ccccc1)[C@@H](O)C2
assay-value: 95 to 96 °C
//
compound: COCOc1ccc2c(c1)C[C@H](O)[C@@H](c1ccccc1)O2
assay-value: 65 to 66 °C
//
compound: Oc1ccc([C@H]2Oc3ccccc3C[C@@H]2O)cc1 [compound 5, (2R,3S)-2-(4-hydroxyphenyl)chroman-3-ol]
assay-value: 106 to 107 °C
//
compound: O[C@H]1Cc2ccccc2O[C@@H]1c1cccs1
assay-value: 94 to 95 °C
